Hello, the source for this data is patent US20240158446A1, in case you need it.

Biological target: GDP-bound KRAS wild-type protein (Homo sapiens, UniProt P01116)
Sequence (P01116 whole entry): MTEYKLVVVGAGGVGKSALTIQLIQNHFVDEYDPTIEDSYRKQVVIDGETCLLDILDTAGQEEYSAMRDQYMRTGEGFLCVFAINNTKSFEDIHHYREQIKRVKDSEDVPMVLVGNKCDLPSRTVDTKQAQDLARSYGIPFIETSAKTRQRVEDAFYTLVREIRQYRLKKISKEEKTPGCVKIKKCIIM
Test: Binding to KRAS by surface plasmon resonance (SPR), Single Cycle Kinetics
Conditions: SPR Single Cycle Kinetics, GDP-bound KRAS wild-type protein, 1:1 binding model; read-out: KRAS KD
*1 amine or outer side, *2 acyl side, *3 side chain or, on linkers, in order; H or OH if unused. Where a SMILES comes first, the peptide text is derived from it. Bridges are numbered along the chain shown (N, C = ends). [ ]: non-standard residue; d: D form. The star is where a group is joined. hPhe(3-Cl-4-CF3) = N[C@@H](CCc1ccc(C(F)(F)F)c(Cl)c1)C(=O)O; X5 = C=CCN([C@@H](Cc1ccc(C(F)(F)F)cc1)C(=O)[*:2])[*:1]; NMeGly(cPent) = CN[C@H](C(=O)O)C1CCCC1; NMeD = CN[C@@H](CC(=O)O)C(=O)O; NMeL = CN[C@@H](CC(C)C)C(=O)O; Morpholide = C1CN(*)CCO1; Ac5c = NC1(C(=O)O)CCCC1; Sar = CNCC(=O)O
experimental-readout: Kd (nM)
Field format: number, assumed nM, no unit text.

Exercise: Reported Kd, molecule C=CCN1C(=O)CN(C)C(=O)CN(C)C(=O)[C@H]([C@@H](C)CC)NC(=O)[C@H](CC(C)C)N(C)C(=O)C[C@@H](C(=O)N2CCOCC2)N(C)C(=O)[C@H](C2CCCC2)N(C)C(=O)C2(CCCC2)NC(=O)[C@@H]2CCCN2C(=O)[C@H](CCc2ccc(C(F)(F)F)c(Cl)c2)NC(=O)CN(C)C(=O)[C@@H]1Cc1ccc(C(F)(F)F)cc1 [PP0128] ([NMeL]I[Sar][Sar][X5][Sar][hPhe(3-Cl-4-CF3)]P[Ac5c][NMeGly(cPent)][NMeD]-Morpholide; lactam N-11) : ____
Key: 0.25

----------
Where a SMILES comes first, the peptide text is derived from it. Bridges are numbered along the chain shown (N, C = ends). [ ]: non-standard residue; d: D form. hPhe(3-Cl-4-CF3) = N[C@@H](CCc1ccc(C(F)(F)F)c(Cl)c1)C(=O)O; NPrPhe(4-CF3) = CCCN[C@@H](Cc1ccc(C(F)(F)F)cc1)C(=O)O; NMeGly(cPent) = CN[C@H](C(=O)O)C1CCCC1; Pro(4,4-F2) = O=C(O)[C@@H]1CC(F)(F)CN1; NMeD = CN[C@@H](CC(=O)O)C(=O)O; NMeL = CN[C@@H](CC(C)C)C(=O)O; Aze = O=C(O)[C@@H]1CCN1; Ac4c = NC1(C(=O)O)CCC1; Sar = CNCC(=O)O
human lung cancer strain NCI-H441: reported pIC50 for various molecules.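 Also: cell proliferation inhibition after four days measured by CellTiter-Glo.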
Note on units: pIC50 is unitless, being -log10 of a concentration expressed in mol/L.

Exercise: Reported pIC50, molecule `C#CCN1CC(=O)N(C)[C@H]2C/C=C\CCN(C2=O)[C@@H](Cc2ccc(C)cc2)C(=O)N(C)CC(=O)N[C@@H](CCc2ccc(C(F)(F)F)c(Cl)c2)C(=O)N2C[C@H](OCC)C[C@H]2C(=O)NC2(CC(C)(C)C2)C(=O)N(C)[C@@H](C2CCCC2)C(=O)N(C)[C@H](C(=O)N(C)C)CC(=O)N(C)[C@@H](CCC)C(=O)N[C@@H](CC(C)C)C1=O` : ____
Key: 7.26

Exercise: Reported pIC50, molecule `CCO[C@@H]1C[C@H]2C(=O)NC3(CCC3)C(=O)N(C)[C@@H](C3CCCC3)C(=O)N(C)[C@H](C(=O)N(C)C)CC(=O)N(C)[C@@H](CC3CCCC3)C(=O)N[C@@H]([C@@H](C)CC)C(=O)N(C)CC(=O)N(C)[C@H]3C/C=C\CCN(C3=O)[C@@H](Cc3ccc(C)cc3)C(=O)N(C)CC(=O)N[C@@H](CCc3cc(F)c(C(F)(F)F)c(F)c3)C(=O)N2C1` : ____
Key: 8.22

Exercise: Reported pIC50, molecule CCCN1C(=O)CN(C)C(=O)[C@@H]2CCN2C(=O)[C@H]([C@@H](C)CC)NC(=O)[C@H](CC(C)C)N(C)C(=O)C[C@@H](C(=O)N(C)C)N(C)C(=O)[C@H](C2CCCC2)N(C)C(=O)C2(CCC2)NC(=O)[C@@H]2CC(F)(F)CN2C(=O)[C@H](CCc2ccc(C(F)(F)F)c(Cl)c2)NC(=O)CN(C)C(=O)[C@@H]1Cc1ccc(C(F)(F)F)cc1 [PP0432] ([NMeL]I[Aze][Sar][NPrPhe(4-CF3)][Sar][hPhe(3-Cl-4-CF3)][Pro(4,4-F2)][Ac4c][NMeGly(cPent)][NMeD]-NMe2; lactam N-11) : ____
Key: 7.97

Exercise: Reported pIC50, molecule `CCO[C@@H]1C[C@H]2C(=O)NC3(CCC3)C(=O)N(C)[C@@H](C3CCCC3)C(=O)N(C)[C@H](C(=O)N3CCOCC3)CC(=O)N(C)[C@@H](Cc3ccc(C#N)cc3)C(=O)N[C@@H]([C@@H](C)CC)C(=O)N(C)CC(=O)N(C)[C@H]3CCCCCN(C3=O)[C@@H](Cc3ccc(C(F)(F)F)cc3)C(=O)N(C)CC(=O)N[C@@H](CCc3cc(F)c(C(F)(F)F)c(F)c3)C(=O)N2C1` : ____
Key: 6.87

Exercise: Reported pIC50, molecule `CCO[C@@H]1C[C@H]2C(=O)NC3(CCC3)C(=O)N(C)[C@@H](C3CCCC3)C(=O)N(C)[C@H](C(=O)N(C)C)CC(=O)N(C)[C@@H](CC)C(=O)N[C@@H]([C@@H](C)CC)C(=O)N(C)CC(=O)N(C)[C@H]3CCCCCN(C3=O)[C@@H](Cc3ccc(F)c(F)c3)C(=O)N(C)CC(=O)N[C@@H](CCc3cc(F)c(C(F)(F)F)c(F)c3)C(=O)N2C1` : ____
Key: 7.61

----------
Target: GDP-bound KRAS wild-type protein (Homo sapiens, UniProt P01116)
Assay: Binding to KRAS by surface plasmon resonance (SPR), Single Cycle Kinetics
Settings: SPR Single Cycle Kinetics, GDP-bound KRAS wild-type protein, 1:1 binding model; read-out: KRAS KD
Where a SMILES comes first, the peptide text is derived from it. Bridges are numbered along the chain shown (N, C = ends). [ ]: non-standard residue; d: D form. The star is where a group is joined. hPhe(3-Cl-4-CF3) = N[C@@H](CCc1ccc(C(F)(F)F)c(Cl)c1)C(=O)O; NPrPhe(4-CF3) = CCCN[C@@H](Cc1ccc(C(F)(F)F)cc1)C(=O)O; NMeGly(cPent) = CN[C@H](C(=O)O)C1CCCC1; NMeD = CN[C@@H](CC(=O)O)C(=O)O; NMeL = CN[C@@H](CC(C)C)C(=O)O; Morpholide = C1CN(*)CCO1; NMeA = CN[C@@H](C)C(=O)O; Ac5c = NC1(C(=O)O)CCCC1; Aze = O=C(O)[C@@H]1CCN1; Ac4c = NC1(C(=O)O)CCC1; NEtG = CCNCC(=O)O; Sar = CNCC(=O)O
experimental-readout: pKd
Note on units: pKd is unitless, being -log10 of a concentration expressed in mol/L.

Exercise: Reported pKd, compound CCCN1C(=O)CN(C)C(=O)CN(CC)C(=O)[C@H]([C@@H](C)CC)NC(=O)[C@H](CC(C)C)N(C)C(=O)C[C@@H](C(=O)N2CCOCC2)NC(=O)[C@H](C2CCCC2)N(C)C(=O)C2(CCC2)NC(=O)[C@@H]2CCCN2C(=O)[C@H](CCc2ccc(C(F)(F)F)c(Cl)c2)NC(=O)CN(C)C(=O)[C@@H]1Cc1ccc(C(F)(F)F)cc1 [PP0332] ([NMeL]I[NEtG][Sar][NPrPhe(4-CF3)][Sar][hPhe(3-Cl-4-CF3)]P[Ac4c][NMeGly(cPent)]D-Morpholide; lactam N-11) : ____
Key: 8.49

Exercise: Reported pKd, compound `CCO[C@@H]1C[C@H]2C(=O)NC3(CCC3)C(=O)N(C)[C@@H](C3CCCC3)C(=O)N(C)[C@H](C(=O)N(C)C)CC(=O)N(C)C[C@@H](C)C(=O)N[C@@H]([C@@H](C)CC)C(=O)N(C)CC(=O)N(C)[C@H]3CCCCN(C3=O)[C@@H](Cc3ccc(C(F)(F)F)cc3)C(=O)N(C)CC(=O)N[C@@H](CCc3cc(F)c(C(F)(F)F)c(F)c3)C(=O)N2C1` : ____
Key: 8.44

Exercise: Reported pKd, compound `CCC[C@H]1C(=O)N[C@@H]([C@@H](C)CC)C(=O)N(C)CC(=O)N(C)[C@H]2C/C=C\CCN(C2=O)[C@@H](Cc2ccc(C(F)(F)F)cc2)C(=O)N(C)CC(=O)N[C@@H](CCc2ccc(C(F)(F)F)c(OC)c2)C(=O)N2CCCCC[C@H]2C(=O)NC2(CC(C)(C)C2)C(=O)N(C)[C@@H](C(CC)CC)C(=O)N(C)[C@H](C(=O)N(C)C)CC(=O)N1C` : ____
Key: 9.26

Exercise: Reported pKd, compound CCCN1C(=O)[C@@H]2CCN2C(=O)[C@H](C)N(C)C(=O)[C@H]([C@@H](C)CC)NC(=O)[C@H](CC(C)C)NC(=O)C[C@@H](C(=O)N2CCOCC2)N(C)C(=O)[C@H](C2CCCC2)N(C)C(=O)C2(CCCC2)NC(=O)[C@@H]2CCCN2C(=O)[C@H](CCc2ccc(C(F)(F)F)c(Cl)c2)NC(=O)CN(C)C(=O)[C@@H]1Cc1ccc(C(F)(F)F)cc1 [PP0154] (LI[NMeA][Aze][NPrPhe(4-CF3)][Sar][hPhe(3-Cl-4-CF3)]P[Ac5c][NMeGly(cPent)][NMeD]-Morpholide; lactam N-11) : ____
Key: 9.64

Exercise: Reported pKd, compound `CCC(CC)[C@H]1C(=O)N(C)[C@H](C(=O)N(C)C)CC(=O)N(C)[C@@H](COC)C(=O)N[C@@H]([C@@H](C)CC)C(=O)N2CCC[C@H]2C(=O)N(C)[C@H]2C/C=C\CCN(C2=O)[C@@H](Cc2ccc(C(F)(F)F)cc2)C(=O)N(C)CC(=O)N[C@@H](CCc2ccc(Cl)c(Cl)c2)C(=O)N2C[C@H](OC(C)C)C[C@H]2C(=O)NC2(CC(C)(C)C2)C(=O)N1C` : ____
Key: 8.96
